System: p42/44 MAPK (Thr202/Tyr204)
Test: Western blot of MAPK phosphorylation in H4IIE cells
Assay type: cell-based, rat
Details: insulin-stimulated, 6 min, 15-min preincubation with the inhibitor (None = insulin alone), one experiment
MEASURED PROPERTY: p42/44 P-MAPK (Thr202/Tyr204) phosphorylation, stimulation (fold) relative to the control
Give bare numbers, in fold.

These recorded examples may help you get a feel for the data.
Fill in: p42/44 P-MAPK (Thr202/Tyr204) phosphorylation, stimulation (fold) relative to the control of N#C/C(=C/c1ccc(O)c(O)c1)C(=O)NCc1ccccc1 [AG490] is ___
16.4

May I ask what p42/44 P-MAPK (Thr202/Tyr204) phosphorylation, stimulation (fold) relative to the control has been recorded for O=c1cc(N2CCOCC2)oc2c(-c3ccccc3)cccc12 [LY294002] ?
10.4

Recorded p42/44 P-MAPK (Thr202/Tyr204) phosphorylation, stimulation (fold) relative to the control for COc1ccc2c(c1)CC[C@@H]1[C@@H]2CC[C@]2(C)[C@@H](NCCCCCCN3C(=O)C=CC3=O)CC[C@@H]12 [U73] , please?
13.4

I am curious: what p42/44 P-MAPK (Thr202/Tyr204) phosphorylation, stimulation (fold) relative to the control value has been reported for CC(C)(C)c1cc(C=C(C#N)C#N)cc(Br)c1O [AG1024] ?
16.74

// switching to the query molecule
Please look up its p42/44 P-MAPK (Thr202/Tyr204) phosphorylation, stimulation (fold) relative to the control: COc1cccc(-c2cc(=O)c3ccccc3o2)c1N [PD98059]
1

---

Please go through the items and note down their p42/44 P-MAPK (Thr202/Tyr204) phosphorylation, stimulation (fold) relative to the control.
Test system: p42/44 MAPK (Thr202/Tyr204)
Experiment: Western blot of MAPK phosphorylation in H4IIE cells
Assay type: cell-based, rat
Conditions: BWE-stimulated, 6 min, 15-min preincubation with the inhibitor (None = BWE alone), one experiment
Answers are plain numbers, in fold.

Field: example entries. Status: answers known.
What p42/44 P-MAPK (Thr202/Tyr204) phosphorylation, stimulation (fold) relative to the control value was documented for this compound, O=c1cc(N2CCOCC2)oc2c(-c3ccccc3)cccc12 ?
13.1

Which p42/44 P-MAPK (Thr202/Tyr204) phosphorylation, stimulation (fold) relative to the control value belongs to COc1cccc(-c2cc(=O)c3ccccc3o2)c1N ?
1.00

Returns the measured p42/44 P-MAPK (Thr202/Tyr204) phosphorylation, stimulation (fold) relative to the control for the input compound. Input: COc1ccc2c(c1)CC[C@@H]1[C@@H]2CC[C@]2(C)[C@@H](NCCCCCCN3C(=O)C=CC3=O)CC[C@@H]12
8.6

Next:
Recorded p42/44 P-MAPK (Thr202/Tyr204) phosphorylation, stimulation (fold) relative to the control of N#C/C(=C/c1ccc(O)c(O)c1)C(=O)NCc1ccccc1 , please.
12.9

---

Test system: Raf (Ser259)
Assay: Western blot of Raf phosphorylation in H4IIE cells
Assay type: cell-based, rat
Conditions: insulin-stimulated, 6 min, 15-min preincubation with the inhibitor (None = insulin alone), one experiment
Lab note: anything with Raf (Ser259) phosphorylation, stimulation (fold) relative to the control at or over 0.3 fold counts as class 1; the rest go in class 0.

Please indicate if the recorded Raf (Ser259) phosphorylation, stimulation (fold) relative to the control for O=c1cc(N2CCOCC2)oc2c(-c3ccccc3)cccc12 meets or exceeds 0.3 fold.
class 0

Reported Raf (Ser259) phosphorylation, stimulation (fold) relative to the control at or above 0.3 fold? COc1cccc(-c2cc(=O)c3ccccc3o2)c1N
class 0

Item CC(C)(C)c1cc(C=C(C#N)C#N)cc(Br)c1O with Raf (Ser259) phosphorylation, stimulation (fold) relative to the control of 0.3 fold or above?
class 0

Quick check: does COc1ccc2c(c1)CC[C@@H]1[C@@H]2CC[C@]2(C)[C@@H](NCCCCCCN3C(=O)C=CC3=O)CC[C@@H]12 have Raf (Ser259) phosphorylation, stimulation (fold) relative to the control greater than or equal to 0.3 fold?
class 1

Kindly determine if Raf (Ser259) phosphorylation, stimulation (fold) relative to the control recorded for N#C/C(=C/c1ccc(O)c(O)c1)C(=O)NCc1ccccc1 is above or exactly 0.3 fold.
class 0
